These entries and their values trace back to patent US6713260B2.

target: UniProtKB Q2FZ22
Sequence (Q2FZ22 whole entry): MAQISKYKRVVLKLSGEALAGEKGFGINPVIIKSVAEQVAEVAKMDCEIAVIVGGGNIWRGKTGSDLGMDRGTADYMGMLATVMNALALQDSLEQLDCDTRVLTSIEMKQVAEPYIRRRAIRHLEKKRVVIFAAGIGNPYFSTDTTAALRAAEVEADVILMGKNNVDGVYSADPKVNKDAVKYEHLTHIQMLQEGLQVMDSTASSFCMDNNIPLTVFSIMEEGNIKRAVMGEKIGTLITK
Experimental readout: Kd (mM)
Answers are plain numbers, in mM.

input: Returns the measured Kd for the input molecule. Input: O=c1ccn([C@@H]2O[C@H](COP(=O)(O)O)[C@@H](O)[C@H]2O)c(=O)[nH]1 [UMP, uridine monophosphate]
output: 1

====

molecular target: S. aureus thymidylate kinase (TK) (Staphylococcus aureus); construct: 6-his tag; made in house; test: biochemical; type: binding; details: Kd calculated from the slopes
Sequence (P65248 whole entry): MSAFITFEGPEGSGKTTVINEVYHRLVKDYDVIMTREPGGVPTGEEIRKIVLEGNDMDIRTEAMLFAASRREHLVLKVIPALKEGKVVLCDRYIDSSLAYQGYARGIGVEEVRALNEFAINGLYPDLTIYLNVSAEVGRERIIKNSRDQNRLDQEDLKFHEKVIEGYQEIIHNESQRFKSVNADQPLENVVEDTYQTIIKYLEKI
Experimental readout: pKd
Give bare numbers, as −log10 of the molar value.

input: Returns the measured pKd for the input compound. Input: Cc1cn([C@H]2C[C@H](O)[C@@H](COP(=O)(O)O)O2)c(=O)[nH]c1=O [TMP, Thymidine monophosphate]
output: 2.04

====

target: S. aureus thymidylate kinase (TK) (Staphylococcus aureus); construct: 6-his tag; made in house; experiment: biochemical; assay type: binding; details: Kd calculated from the rate constants
Experimental readout: pKd
Numbers only, as −log10 of the molar value.

input: Returns the measured pKd for the input molecule. Input: Cc1cn([C@H]2C[C@H](O)[C@@H](COP(=O)(O)O)O2)c(=O)[nH]c1=O [TMP, Thymidine monophosphate]
output: 2.12
